Poly [ADP-ribose] polymerase 1 (Homo sapiens) IC50, compiled from various sources.
measure: IC50 (nM)

Example cases with answers are listed next.
What reported IC50 corresponds to CCc1cc2ncc(CN3C[C@H]4CN(c5ccc(C(=O)NC)nc5F)C[C@@H]4C3)cc2[nH]c1=O (racemic) on Poly [ADP-ribose] polymerase 1 (Homo sapiens)? 6.13

What reported IC50 corresponds to `CNC(=O)c1ccc(N2C[C@H]3CN(Cc4ccc5nc(C)c(=O)[nH]c5c4F)C[C@@H]3C2)c(F)n1` on Poly [ADP-ribose] polymerase 1 (Homo sapiens)? 20.6

What reported IC50 corresponds to `CCc1cc2ncc(CN3CCN(c4cnc(C(=O)NC)cc4F)CC3)cc2[nH]c1=O` on Poly [ADP-ribose] polymerase 1 (Homo sapiens)? 1.6

(I) CCc1cc2ncc(CN3CCN(c4ccc5c(C(=O)NC)ncn5c4)CC3)cc2[nH]c1=O
(II) O=C(NC1COC1)c1ccc(N2C[C@H]3CN(Cc4cnc5c6c(c(=O)[nH]c5c4)CCCC6)C[C@@H]3C2)c(F)n1
(III) Cc1cc2ncc(CN3C[C@H]4CN(c5ccc(C(=O)NC6CC6)nc5)C[C@@H]4C3)cc2[nH]c1=O (racemic)
(IV) O=C(NC1COC1)c1ccc(N2C[C@H]3CN(Cc4ccc5c6c(c(=O)[nH]c5c4)COCC6)C[C@@H]3C2)c(F)n1
Order the records by IC50, with each subsequent value no larger than the one before. Answer by listing the labels in the order asked for. III, II, I, IV
(III: 16.6 nM, II: 7.66 nM, I: 5 nM, IV: 2.92 nM)

(I) CNC(=O)c1ccc(N2C[C@H]3CN(Cc4cc5[nH]c(=O)c6c(c5cn4)COCC6)C[C@@H]3C2)c(F)n1
(II) CCc1cc2ncc(CN3C[C@H]4CN(c5ccc(C(=O)NC)nc5)C[C@@H]4C3)cc2[nH]c1=O (racemic)
Record comparison, field IC50: mark the lower of I and II . Pick one and reply with its label. I

(I) O=C(NC1COC1)c1ccc(N2C[C@H]3CN(Cc4ccc5c6c(c(=O)[nH]c5c4)CCC6)C[C@@H]3C2)c(F)n1
(II) CCc1cc2ncc(CN3CCN(c4ccc(C(=O)N[C@H]5CCNC5)nc4)CC3)cc2[nH]c1=O
Which shows the larger IC50 value: I or II ? Pick one and reply with its label. I

====

Poly [ADP-ribose] polymerase 1 (Homo sapiens) pIC50, compiled from various sources.
pIC50: −log10 of the molar value.
measure: pIC50

Bench note: what pIC50 did `CCc1cc2ncc(CN3CCN(c4ccc5nc(C)[nH]c5c4)CC3)cc2[nH]c1=O` show? 8.77

(A) CCc1cn2cc(N3CCN(Cc4cnc5cc(CC)c(=O)[nH]c5c4)CC3)ncc2n1
(B) CCc1cc2ncc(CN3CCN(c4cnc5c(NC)nccc5c4)CC3)cc2[nH]c1=O
Which shows the larger pIC50 value: A or B ? Pick one and reply with its label. B

(1) CCC1Oc2ncc(CN3C[C@H]4CN(c5ccc(C(=O)NC)nc5F)C[C@@H]4C3)cc2NC1=O (mixture of isomers)
(2) CCc1cc2ncc(CN3CCN(c4ccc(C(=O)NC5CNC5)nc4)CC3)cc2[nH]c1=O
Which shows the larger pIC50 value: 1 or 2 ? Pick one and reply with its label. 2
